Exercise: state measured Gal4 activity range @ 0.1 μM (% inhibition) for each of the compounds provided.
# measurement.target: yeast Gal4-DNA binding domain fused to the ligand binding domain of human RORγ (Homo sapiens, UniProt P51449)
# Construct: host or cells: HEK293t
# Sequence (P51449 269-508 limits assumed): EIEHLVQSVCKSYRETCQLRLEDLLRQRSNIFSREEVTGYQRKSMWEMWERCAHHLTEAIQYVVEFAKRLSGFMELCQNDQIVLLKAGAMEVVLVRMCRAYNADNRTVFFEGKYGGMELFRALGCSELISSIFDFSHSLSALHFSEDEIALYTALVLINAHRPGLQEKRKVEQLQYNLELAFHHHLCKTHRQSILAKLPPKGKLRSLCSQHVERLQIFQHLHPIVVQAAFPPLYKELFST
# assay.method.text: RORγ Reporter Assay (Gal4)
# Type: cell-based
# condition.info: RORγ Reporter Assay (Gal4) at 0.1 μM; values given as lower bounds of ranges

Solved cases (6 shown):
compound: CC1(CNc2ncnc(N3CCC[C@@H]3c3ccc(C(F)(F)F)cc3)c2F)CCCS1 (some centres unmarked)
observed: >0 % inhibition
--
compound: NC(=O)Cc1ccc(CNc2ncnc(N3CC(F)(F)CC3c3ccc(C(F)(F)F)cc3)c2F)cc1 (centres unmarked)
observed: >50 % inhibition
--
compound: CNC(=O)Cc1ccc(CNc2ncnc(N3CCC[C@@H]3c3ccc(C(F)(F)F)cc3)c2F)cc1
observed: >20 % inhibition
--
compound: O=S1(=O)CCC(O)(CNc2ncnc(N3CCC[C@@H]3c3ccc(C(F)(F)F)cc3)c2F)CC1
observed: >50 % inhibition
--
compound: CC1(CNc2ncnc(N3CCOC[C@@H]3c3ccc(C(F)(F)F)cc3)c2F)COC1
observed: >0 % inhibition
--
compound: NC(=O)Cc1ccc(CNc2ncnc(N3CCC[C@@H]3c3ccc(C(F)(F)F)cc3F)c2F)cc1
observed: >50 % inhibition

Working through the 2 compounds below one at a time, give Gal4 activity range @ 0.1 μM (% inhibition) for each.
1. OCC1(CNc2ncnc(N3CCC[C@@H]3c3ccc(C(F)(F)F)cc3)c2F)COC1
2. COc1cc(CNc2ncnc(N3CCCC3c3ccc(C(F)(F)F)cc3)c2F)ccn1 (centres unmarked)

Response:
>20 % inhibition
>50 % inhibition

###

# measurement.target: yeast Gal4-DNA binding domain fused to the ligand binding domain of human RORγ (Homo sapiens)
# Construct: host or cells: HEK293t
# assay.method.text: RORγ Reporter Assay (Gal4)
# Type: cell-based
# condition.info: RORγ Reporter Assay (Gal4) at 0.1 μM; values given as lower bounds of ranges
endpoint.name: Gal4 activity range @ 0.1 μM (% inhibition)

Reference set (6 entries):
compound: CC(=O)N1CCC(F)(CNc2ncnc(N3CCOC[C@@H]3c3ccc(C(F)(F)F)cc3)c2F)CC1 [Example 262]
observed: >20 % inhibition
--
compound: CS(=O)(=O)N1CCC(CNc2ncnc(N3CCC[C@@H]3c3ccc(C(F)(F)F)cc3)c2F)CC1 [Example 197]
observed: >80 % inhibition
--
compound: NC(=O)Cc1ccc(Cn2ccc3c(N4CCOC[C@@H]4c4ccc(C(F)(F)F)nc4)ncnc32)cc1 [Example 326]
observed: >50 % inhibition
--
compound: CS(=O)(=O)CC1(CNc2ncnc(N3CCC[C@@H]3c3ccc(C(F)(F)F)cc3)c2F)CCOCC1 [Example 240]
observed: >80 % inhibition
--
compound: CC(=O)N1CCC(CNc2ncnc(N3CCOC[C@@H]3c3ccc(C(F)(F)F)cc3)c2F)CC1 [Example 233]
observed: >20 % inhibition
--
compound: CC(C)(O)Cc1ccc(CNc2ncnc(N3CCCC3c3ccc(C(F)(F)F)cc3)c2F)cc1 (stereo not shown) [Example 98]
observed: >20 % inhibition

Please find the next compound below.
Query: Can you share its Gal4 activity range @ 0.1 μM (% inhibition)? I mean this compound: Fc1c(NC[C@H]2CC[C@H](Cc3nnn[nH]3)CC2)ncnc1N1CCOC[C@@H]1c1ccc(C(F)(F)F)cc1 [Example 288]
Response: >80 % inhibition

Data credit: patent US10689383B2
